Target: human Factor XIa (Homo sapiens (Human), UniProt P03951)
Sequence (P03951 388-625): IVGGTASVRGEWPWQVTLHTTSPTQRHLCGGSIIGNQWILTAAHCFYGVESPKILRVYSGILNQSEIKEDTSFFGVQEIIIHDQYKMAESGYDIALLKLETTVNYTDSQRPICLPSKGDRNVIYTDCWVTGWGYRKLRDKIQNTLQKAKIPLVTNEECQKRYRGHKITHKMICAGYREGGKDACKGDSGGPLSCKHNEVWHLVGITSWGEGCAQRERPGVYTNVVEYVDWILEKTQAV
Sequence (P03951 19-387 partner): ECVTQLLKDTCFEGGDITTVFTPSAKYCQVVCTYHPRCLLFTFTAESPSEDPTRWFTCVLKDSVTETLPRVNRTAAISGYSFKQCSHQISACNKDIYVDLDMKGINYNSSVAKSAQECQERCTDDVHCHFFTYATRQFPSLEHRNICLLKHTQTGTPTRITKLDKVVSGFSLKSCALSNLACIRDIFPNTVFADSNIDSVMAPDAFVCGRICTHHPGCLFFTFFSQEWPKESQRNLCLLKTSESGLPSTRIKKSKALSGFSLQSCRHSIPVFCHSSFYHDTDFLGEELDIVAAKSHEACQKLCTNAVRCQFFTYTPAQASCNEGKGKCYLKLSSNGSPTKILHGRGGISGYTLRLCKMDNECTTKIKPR
Experiment: Factor XIa Assay
Type: biochemical
Settings: purified human Factor XIa 40 pM, Z-Gly-Pro-Arg-AFC 100 μM, pH 7.4; read-out: FXIa Ki
pKi: −log10 of the molar value.
Where pKi equals or exceeds 7, the correct label is Yes; where it does not, the label is No.

Past entries and their recorded results:
molecule=O=C1Nc2ccc(Cl)cc2[C@@]2(CCN(C(=O)[C@H](Cc3ccccc3)Nc3ncc(C(=O)O)cc3F)C2)O1 label_class=No
molecule="COC(=O)Nc1ccc(C(=O)NC[C@@H](Cc2ccccc2)C(=O)N2CCC3(C2)OC(=O)Nc2ccc(Cl)cc23)cc1 (stereo partly shown)" label_class=No
molecule=COC(=O)Nc1ccc(C(=O)N[C@@H](Cc2ccncc2)C(=O)N2CCC[C@@]3(C2)OC(=O)Nc2ccc(Cl)c(F)c23)cc1 label_class=Yes
molecule="COC(=O)Nc1ccc(C(=O)N[C@@H](Cc2ccccc2)C(=O)N2CC[C@]3(C2)OC(=O)Nc2ccc(C)cc23)cc1 [Example 14a]" label_class=No
molecule="COC(=O)Nc1ccc(C(=O)NC2(C(=O)N3CCC4(C3)OC(=O)Nc3ccc(Cl)cc34)Cc3ccccc3C2)cc1 (racemic)" label_class=No
molecule=COC(=O)Nc1ccc(C(=O)N[C@@H](CC(=O)N2CCCCC2)C(=O)N2CC[C@@]3(C2)OC(=O)Nc2ccc(Cl)cc23)cc1 label_class=Yes
molecule=COC(=O)Nc1ccc(C(=O)N[C@@H](Cc2ccccc2)C(=O)N2CC[C@@]3(C2)OC(=O)Nc2ncc(Cl)cc23)cc1 label_class=No
molecule="COC(=O)Nc1ccc(C(=O)N[C@H](C(=O)N2CCC3(C2)OC(=O)Nc2ccc(Cl)cc23)c2ccccc2)cc1 (stereo partly shown)" label_class=No
molecule="Nc1[nH]nc2c1CN(C(=O)N[C@@H](Cc1ccccc1)C(=O)N1CCC3(C1)OC(=O)Nc1ccc(Cl)cc13)C2 (stereo partly shown)" label_class=No
molecule="COC(=O)Nc1ccc(-c2nnc([C@H](Cc3ccccc3)C(=O)N3CC[C@@]4(C3)OC(=O)Nc3ccc(Cl)c(F)c34)o2)cc1 [Example 129A]" label_class=No

Test whether the molecule COC(=O)Nc1ccc(C(=O)N[C@@H](CC2CC2(F)F)C(=O)N2CCC[C@@]3(C2)OC(=O)Nc2ccc(Cl)c(F)c23)cc1 (single isomer, unassigned) [Example 67B] records pKi of 7 or higher.
Yes

Test whether the molecule O=C1Nc2ccc(Cl)cc2[C@@]2(CCCN(C(=O)C(Cc3ccc(F)cc3)c3nc(Cl)c(-c4ccc(C(=O)O)cc4)[nH]3)C2)O1 (stereo partly shown) records pKi of 7 or higher.
No

Test whether the molecule NC(=O)c1n[nH]c2c1CN(C(=O)N[C@@H](Cc1ccccc1)C(=O)N1CCC3(C1)OC(=O)Nc1ccc(Cl)cc13)C2 (stereo partly shown) records pKi of 7 or higher.
No

Test whether the molecule COC(=O)Nc1ccc(C(=O)N[C@@H](Cc2ccc(-c3cnn(C)c3)cc2)C(=O)N2CC[C@@]3(C2)OC(=O)Nc2ccc(Cl)cc23)cc1 records pKi of 7 or higher.
Yes

Test whether the molecule COC(=O)Nc1ccc(C(=O)N[C@@H](Cc2ccc(-c3cc[nH]c3)cc2)C(=O)N2CC[C@@]3(C2)OC(=O)Nc2ccc(Cl)cc23)cc1 records pKi of 7 or higher.
Yes

Numbers sourced from patent US10093683B2.
